System: SNB-75 CNS
PROCEDURE_TEXT: NCI-60 one-dose screen, 48 h (100 = growth as untreated, 0 = no growth, -100 = all killed)
COND: 10 µM
The panel holds about 83,000 compounds, 20% with a hit somewhere; the sample as a whole holds those more often.
READOUT_KIND: growth (%)
Quick note: give the figure in %, leave out the unit.

Example results:
CN(C)CCC(=O)c1ccc(O)cc1 : 93.7
CC(C)C(C#N)(C(C)C)C(C)C : 98.6
CC(C)OC(=O)c1cc(NC(=S)OC(C)C)ccc1Cl : 109

Note to self: growth of OCC(O)C(O)C(O)C(O)/C=N/O (configuration not stated) with SNB-75 CNS was 96.1

Note to self: growth of OC1CCCc2ccccc21 (configuration not stated) with SNB-75 CNS was 88

Note to self: growth of `CCn1c(=O)n(C)c2c(=O)n(C)c(=O)n(C)c21` with SNB-75 CNS was 97.1

Note to self: growth of `COc1cc2c(cc1OC)[C@H](C(=O)O)[C@@H](c1ccc(OC(C)C)c(OC)c1)N(C)C2=O` with SNB-75 CNS was 90.4

Note to self: growth of `CC(=O)CC(=O)N(C)C` with SNB-75 CNS was 80.1

Note to self: growth of `CC1=C(/C=C/C(C)=C/C=C/C(C)=C/CO)C(C)(C)CCC1` with SNB-75 CNS was 95.3

Note to self: growth of `CCC/C=C(/C(C)=O)C(=O)OCC` with SNB-75 CNS was 89.2

Note to self: growth of `CCS(=O)(=O)c1cc(=O)[nH]c(=O)[nH]1` with SNB-75 CNS was 82.4
